Each recorded value in this set is attributed to the supplement of paper PMC11208160.

Entries and their measured recombinant UMI read abundance (log10) follow.
assay: recombinant UMI read abundance after kanamycin selection (control-corrected) (log10(CPM+1)); higher = more efficient recombination; extreme values may be limits of the assay; sequences stand for … in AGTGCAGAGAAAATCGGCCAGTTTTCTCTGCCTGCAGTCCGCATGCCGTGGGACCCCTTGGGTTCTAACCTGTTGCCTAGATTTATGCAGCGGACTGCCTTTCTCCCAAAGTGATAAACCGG…AGGTTGGTTTCACT; site = the 11-nt donor;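 also: IS621 bridge recombinase in Escherichia coli cells against a fixed T5 target plasmid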
readout: recombinant UMI read abundance (log10)

INSERT INTO assay_data (residue_sequence, observed_result) VALUES
  ('CTGACCTCATGGACCGGTTTTCCCGGTAATCCGTATTTGTA (site CTGACCTCTTA)', 2.34),
  ('AGGATGGCATGGACCGGTTTTCCCGGTAATCCGTATTTGGT (site AGGATGGCTAC)', 1.79),
  ('TAGGAATCATGGACCGGTTTTCCCGGTAATCCGTATTTGCT (site TAGGAATCTCG)', 1.1),
  ('GGATGAACATGGACCGGTTTTCCCGGTAATCCGTATTTGTT (site GGATGAACTAA)', 1.78),
  ('TGCCGGCCATGGACCGGTTTTCCCGGTAATCCGTATTTGGA (site TGCCGGCCTTC)', 0.0137),
  ('GGGACACCATGGACCGGTTTTCCCGGTAATCCGTATTTGCA (site GGGACACCTTG)', 0),
  ('CTCCTAACATGGACCGGTTTTCCCGGTAATCCGTATTTGGA (site CTTCTAACTTC)', 0.0149),
  ('GACTGAGCATGGACCGGTTTTCCCGGTAATCCGTATTTGTC (site GACTGAGCTGA)', 2.29);
